B1: SEPHS2 (parent)
chain: KASGRFGLLQGTSAETSGGLLICL

- Variants of: B1
- Experimental protocol: protein stability index of a GFP-peptide fusion (GPS, HEK-293T) (PSI 1-6); higher = more stable;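 further: lentivirally expressed fusions sorted by FACS into six bins by GFP to DsRed ratio, PSI derived from sequencing read proportions per bin multiplied by bin number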
- Test context: c terminus: a fixed tail appended
Class definitions on protein stability index: bottom bin = under 2, middle bin = from 2 up to 3, top bin = 3 and over

R5L
top bin
S17G
middle bin
S13Q
bottom bin
S3M
bottom bin
G18K
middle bin
L9I
middle bin
L21H
middle bin
A2G
bottom bin
A14L
middle bin
A2S
top bin

Challenge: Categorize the following entry: C23M
Response given: bottom bin

Challenge: Please do the same for F6D as well.
Response given: bottom bin

Challenge: What about A2Y ?
Response given: middle bin

Challenge: Next record, please: F6S
Response given: bottom bin

Challenge: Can you handle T16H next?
Response given: bottom bin

Challenge: Item: L9Y
Response given: middle bin

Origin of the recorded values: the supplement of paper PMC10567573
